Molecular target: glutaminase (brain membranes) (Rattus norvegicus, UniProt P13264)
Construct: Membranes are prepared by homogenization of brain tissue in 330 mM sucrose; from tissue; host or cells: rat brain, crude membranes (17000 G pellet)
Sequence (P13264 73-674 limits assumed): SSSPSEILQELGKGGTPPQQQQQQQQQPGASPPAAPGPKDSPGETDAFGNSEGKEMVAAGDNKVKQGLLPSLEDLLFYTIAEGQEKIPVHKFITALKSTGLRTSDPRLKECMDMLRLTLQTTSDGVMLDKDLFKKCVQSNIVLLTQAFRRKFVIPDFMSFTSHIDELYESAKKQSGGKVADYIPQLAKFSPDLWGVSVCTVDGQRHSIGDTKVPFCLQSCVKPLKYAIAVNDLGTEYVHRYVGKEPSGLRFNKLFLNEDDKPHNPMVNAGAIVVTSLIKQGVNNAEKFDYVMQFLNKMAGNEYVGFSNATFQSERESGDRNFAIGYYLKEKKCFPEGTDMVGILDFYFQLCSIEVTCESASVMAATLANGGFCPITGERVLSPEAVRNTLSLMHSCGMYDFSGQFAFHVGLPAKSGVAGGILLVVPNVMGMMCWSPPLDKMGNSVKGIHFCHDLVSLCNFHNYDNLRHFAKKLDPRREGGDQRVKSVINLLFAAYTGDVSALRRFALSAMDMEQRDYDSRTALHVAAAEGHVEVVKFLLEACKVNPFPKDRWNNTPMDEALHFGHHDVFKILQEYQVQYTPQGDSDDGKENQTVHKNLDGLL
Test: biochemical
Conditions: read-out: Glutaminase Activity
Non-standard residues stand in square brackets, D forms with d. Residues, ends and D or L forms follow the SMILES beside them. pGlu = O=C1CC[C@@H](C(=O)O)N1
observation-type: activity at 9000 µM (%)

> print(dat)
                                    compound  test.value
 1  N[C@@H](Cc1c[nH]c2ccccc12)C(=O)N[C@@H](CCC(=O)O)C(=O)O [Trp--Glu] (H-Trp-Glu-OH)          86
 2  CSCC[C@H](N)C(=O)N[C@@H](CCC(=O)O)C(=O)O [Met--Glu] (H-Met-Glu-OH)          98
 3  CC(C)(C)OC(=O)NCC(=O)NC(CC(F)C(=O)O)C(=O)O (stereo not drawn) [BOC-glycyl-4-fluoroglutamate]          15
 4  NCCCC[C@H](NC(=O)[C@@H](N)CCC(=O)O)C(=O)O [Glu--Lys] (H-Glu-Lys-OH)          93
 5                N=CN[C@@H](CCC(=O)O)C(=O)O         127
 6  CC(C)[C@H](N)C(=O)N[C@@H](CCC(=O)O)C(=O)O [Val--Glu] (H-Val-Glu-OH)          99
 7                           O=C(O)CCCC(=O)O          75
 8  NCC(=O)NC(CC(F)C(=O)O)C(=O)O (stereo not drawn) [glycyl-4-fluoroglutamate, Glycyl-4-fluoroglutamate]          30
 9     NC(=O)[C@@H](N)CCC(=O)O [L-glutamide]          96
10  COC(=O)CC[C@H](N)C(=O)O [L-glutamate-5-methyl ester]         113
11  CC(=O)NC(CCC(=O)O)C(=O)O (racemic) [N-acetyl-DL-glutamate]          75
12  C[C@H](NC(=O)[C@@H]1CCC(=O)N1)C(=O)N[C@@H](CCC(=O)O)C(=O)O [pyro-Glu--Ala--Glu] ([pGlu]-Ala-Glu-OH)          76
13  NCC(=O)NCC(=O)N[C@@H](CCC(=O)O)C(=O)O [Gly--Gly--Glu] (H-Gly-Gly-Glu-OH)          87
14  N[C@@H](CO)C(=O)N[C@@H](CCC(=O)O)C(=O)O [Ser--Glu] (H-Ser-Glu-OH)          88
15     CC(C)(C)OC(=O)N[C@@H](CCC(=O)O)C(=O)O         100
16  NCC(=O)N[C@@H](CCC(=O)O)C(=O)O [Gly--Glu] (H-Gly-Glu-OH)         102
17  NC(CC(C(=O)O)C(=O)O)C(=O)O (stereo not drawn) [γ-carboxy glutamate]         104
18  C[C@@H](O)[C@H](NC(=O)[C@@H](N)CCC(=O)O)C(=O)O [Glu--Thr] (H-Glu-Thr-OH)         123
